Classification: recorded values
Biological target: T1, GST-KIAA0973 PDZ domain 1 (Homo sapiens (Human)), Q9Y2H9
T1 chain: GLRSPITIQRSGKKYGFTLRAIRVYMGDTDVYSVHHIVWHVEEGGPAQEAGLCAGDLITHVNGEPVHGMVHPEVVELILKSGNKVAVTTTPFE
Experiment: G' assay; further: key of the grades not given here
Form entry: value (A450 class) — number only.

>  <binder>
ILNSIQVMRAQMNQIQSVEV (modifications not checked) [ephrin B2]

>  <measure.unit>
A450 class

>  <Classification>
2

$$$$
>  <binder>
SSKSKSSEESQTFFGLYKL (modifications not checked) [Fas Ligand]

>  <measure.unit>
A450 class

>  <Classification>
2

$$$$
>  <binder>
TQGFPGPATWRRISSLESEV (modifications not checked) [NMDA Glutamate Receptor 2C (cysteine-free)]

>  <measure.unit>
A450 class

>  <Classification>
1

$$$$

Now look at this entry.
Entry under review: KTMPAATYRLLTGQEQPVYL (modifications not checked) [MINT-3] . Reported Classification?
2
